Experiment: Probe fluorescence ratio response to linolenic acid relative to ADIFAB2
Type: binding
Conditions: response relative to ADIFAB2

molecule: 60H, 72A (protein, listed as Rattus norvegicus, PEPTIDE (1)...(131) wild-type rat intestinal fatty acid binding protein) AFDGTWKVDRNENYEKFMEKMGINVVKRKLGAHDNLKLTITQEGNKFTVKESSNFRNIDHVFELGVDFAYSAADGTELTGTWTMEGNKLVGKFKRVDNGKELIAVREISGNELIQTYTYEGVEAKRIFKKE
DR/DR LNA: 0.18
--
molecule: 55S1, 72A (protein, listed as Rattus norvegicus, PEPTIDE (1)...(131) wild-type rat intestinal fatty acid binding protein) AFDGTWKVDRNENYEKFMEKMGINVVKRKLGAHDNLKLTITQEGNKFTVKESSNSRNIDVVFELGVDFAYSAADGTELTGTWTMEGNKLVGKFKRVDNGKELIAVREISGNELIQTYTYEGVEAKRIFKKE
DR/DR LNA: 0.43
--
molecule: 31I, 72A (protein, listed as Rattus norvegicus, PEPTIDE (1)...(131) wild-type rat intestinal fatty acid binding protein) AFDGTWKVDRNENYEKFMEKMGINVVKRKLIAHDNLKLTITQEGNKFTVKESSNFRNIDVVFELGVDFAYSAADGTELTGTWTMEGNKLVGKFKRVDNGKELIAVREISGNELIQTYTYEGVEAKRIFKKE
DR/DR LNA: 0.413
--
molecule: 72T 73W 74L (protein, listed as Rattus norvegicus, PEPTIDE (1)...(131) wild-type rat intestinal fatty acid binding protein) AFDGTWKVDRNENYEKFMEKMGINVVKRKLGAHDNLKLTITQEGNKFTVKESSNFRNIDVVFELGVDFAYSTWLGTELTGTWTMEGNKLVGKFKRVDNGKELIAVREISGNELIQTYTYEGVEAKRIFKKE
DR/DR LNA: 3.009
--
molecule: 18I 31Y 73I 72A (protein, listed as Rattus norvegicus, PEPTIDE (1)...(131) wild-type rat intestinal fatty acid binding protein) AFDGTWKVDRNENYEKFIEKMGINVVKRKLYAHDNLKLTITQEGNKFTVKESSNFRNIDVVFELGVDFAYSAIDGTELTGTWTMEGNKLVGKFKRVDNGKELIAVREISGNELIQTYTYEGVEAKRIFKKE
DR/DR LNA: 2.865
--
molecule: 55L1, 72A (protein, listed as Rattus norvegicus, PEPTIDE (1)...(131) wild-type rat intestinal fatty acid binding protein) AFDGTWKVDRNENYEKFMEKMGINVVKRKLGAHDNLKLTITQEGNKFTVKESSNLRNIDVVFELGVDFAYSAADGTELTGTWTMEGNKLVGKFKRVDNGKELIAVREISGNELIQTYTYEGVEAKRIFKKE
DR/DR LNA: 0.72
